Values from PubChem BioAssay AID1918998

Reported viability, T/C values are given for each entry in this list.
# Test system: 521955-158-R2-J5-PDC complex spheroid growth
# EXPERIMENT DESCRIPTION: Anticancer human tumor 521955-158-R2-J5-PDC patient-derived pancreatic carcinoma cell line growth inhibition [AhR]
# MEASUREMENT CONTEXT: second compound 10 µM; first compound 0.1 µM; stronger effect = lower value
# value in %; strip the unit string

>  <COMPOUND>
NS(=O)(=O)OCC1CC(n2ccc3c(NC4CCc5ccccc54)ncnc32)CC1O (stereo not given) + Cc1ccccc1N=Nc1ccc(NC(=O)c2ccnn2C)c(C)c1

>  <MEASURED>
91.2

$$$$
>  <COMPOUND>
O=C(C=Cc1cccc(S(=O)(=O)Nc2ccccc2)c1)NO + Cc1cncc(-c2nc(NCCc3c[nH]c4ccccc34)c3ncn(C(C)C)c3n2)c1

>  <MEASURED>
112

$$$$
>  <COMPOUND>
CC1(C)CCC(CN2CCN(c3ccc(C(=O)NS(=O)(=O)c4ccc(NCC5CCOCC5)c([N+](=O)[O-])c4)c(Oc4cnc5[nH]ccc5c4)c3)CC2)=C(c2ccc(Cl)cc2)C1 + Cc1cncc(-c2nc(NCCc3c[nH]c4ccccc34)c3ncn(C(C)C)c3n2)c1

>  <MEASURED>
147

$$$$
>  <COMPOUND>
COc1cccc2c1C(=O)c1c(O)c3c(c(O)c1C2=O)CC(O)(C(=O)CO)CC3OC1CC(N)C(O)C(C)O1 (stereo not given) + Cc1cncc(-c2nc(NCCc3c[nH]c4ccccc34)c3ncn(C(C)C)c3n2)c1

>  <MEASURED>
48.4

$$$$

input: So what viability, T/C did COc1cc(C2c3cc4c(cc3C(OC3OC5COC(C)OC5C(O)C3O)C3COC(=O)C23)OCO4)cc(OC)c1O (stereo not given) + Cc1ccccc1N=Nc1ccc(NC(=O)c2ccnn2C)c(C)c1 get with 521955-158-R2-J5-PDC complex spheroid growth?
output: 140

---

# Test system: 521955-158-R2-J5-PDC complex spheroid growth
# EXPERIMENT DESCRIPTION: Anticancer human tumor 521955-158-R2-J5-PDC cell line growth inhibition [AhR]
# MEASUREMENT CONTEXT: curve of first compound; second compound 10 µM
pIC50: −log10 of the molar value.
MEASUREMENT LABEL: pIC50

>  <COMPOUND>
CC1COCCN1c1cc(-c2ccnn2C)c2ccnc(-c3ccn[nH]3)c2n1 (configuration not stated) + Cc1ccccc1N=Nc1ccc(NC(=O)c2ccnn2C)c(C)c1

>  <pIC50>
7.00

$$$$
>  <COMPOUND>
O=C(c1cc(Cc2n[nH]c(=O)c3ccccc23)ccc1F)N1CCN(C(=O)C2CC2)CC1 + CC(CO)NC(=O)c1cc(-c2ccc(Cl)cc2)nn(-c2cnn(C)c2)c1=O

>  <pIC50>
< 5.00

$$$$
>  <COMPOUND>
NS(=O)(=O)OCC1CC(n2ccc3c(NC4CCc5ccccc54)ncnc32)CC1O (configuration not stated) + Cc1ccccc1N=Nc1ccc(NC(=O)c2ccnn2C)c(C)c1

>  <pIC50>
6.46

$$$$
>  <COMPOUND>
CCN(c1cc(-c2ccc(CN3CCOCC3)cc2)cc(C(=O)NCc2c(C)cc(C)[nH]c2=O)c1C)C1CCOCC1 + Cc1ccccc1N=Nc1ccc(NC(=O)c2ccnn2C)c(C)c1

>  <pIC50>
< 5.52

$$$$
>  <COMPOUND>
Nc1ncn(C2CC(O)C(CO)O2)c(=O)n1 (configuration not stated) + CC(CO)NC(=O)c1cc(-c2ccc(Cl)cc2)nn(-c2cnn(C)c2)c1=O

>  <pIC50>
< 6.00

$$$$

input: Which pIC50 is reported for this compound? O=C(c1cc(Cc2n[nH]c(=O)c3ccccc23)ccc1F)N1CCN(C(=O)C2CC2)CC1 + Cc1ccccc1N=Nc1ccc(NC(=O)c2ccnn2C)c(C)c1
output: < 5.00

input: Which pIC50 is reported for this compound? Cn1ncnc1C1c2n[nH]c(=O)c3cc(F)cc(c23)NC1c1ccc(F)cc1 (configuration not stated) + Cc1ccccc1N=Nc1ccc(NC(=O)c2ccnn2C)c(C)c1
output: < 7.00

---

# Test system: 521955-158-R2-J5-PDC complex spheroid growth
# EXPERIMENT DESCRIPTION: Anticancer human tumor 521955-158-R2-J5-PDC cell line growth inhibition [AhR]
# MEASUREMENT CONTEXT: curve of first compound; second compound 10 µM
# Text: Multicellular complex tumor spheroid response to aryl hydrocarbon receptor antagonists in combination with a variety of drugs and investigational agents in selected tumor cell lines […] Compounds. […] If the clinical Cmax for an agent had not been determined, the highest concentration tested was 10 microM (Table 1). […]
MEASUREMENT LABEL: IC50 (nM)
# value in nM; strip the unit string

Guide cases for IC50, answers given:
>  <MOLECULE>
CC1COCCN1c1cc(C2(S(C)(=N)=O)CC2)nc(-c2ccnc3[nH]ccc23)n1 (stereo unspecified) + CC(CO)NC(=O)c1cc(-c2ccc(Cl)cc2)nn(-c2cnn(C)c2)c1=O

>  <TARGET OR TEST SYSTEM>
521955-158-R2-J5-PDC complex spheroid growth

>  <MEASUREMENT LABEL>
IC50

>  <MEASURED>
1810

$$$$
>  <MOLECULE>
COc1cc(C2c3cc4c(cc3C(OC3OC5COC(C)OC5C(O)C3O)C3COC(=O)C23)OCO4)cc(OC)c1O (stereo unspecified) + Cc1ccccc1N=Nc1ccc(NC(=O)c2ccnn2C)c(C)c1

>  <TARGET OR TEST SYSTEM>
521955-158-R2-J5-PDC complex spheroid growth

>  <MEASUREMENT LABEL>
IC50

>  <MEASURED>
1580

$$$$

input: Which IC50 is reported for this molecule? O=C(C=Cc1cccc(S(=O)(=O)Nc2ccccc2)c1)NO + Cc1ccccc1N=Nc1ccc(NC(=O)c2ccnn2C)c(C)c1
output: 3550

input: Which IC50 is reported for this molecule? CC(C)CC(NC(=O)C(Cc1ccccc1)NC(=O)c1cnccn1)B(O)O (stereo unspecified) + CC(CO)NC(=O)c1cc(-c2ccc(Cl)cc2)nn(-c2cnn(C)c2)c1=O
output: 4.16

---

# Test system: 521955-158-R2-J5-PDC complex spheroid growth
# EXPERIMENT DESCRIPTION: Anticancer human tumor 521955-158-R2-J5-PDC cell line growth inhibition [AhR];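 for viability, T/C: spheroids mix tumor cells with HUVEC endothelium and human MSC stroma; luminescence taken as viability surrogate after a week of drug exposure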
# MEASUREMENT CONTEXT: second compound 1 µM; first compound 3.16 µM; stronger effect = lower value
Reported viability, T/C values are given for each entry in this list.
# value in %; strip the unit string

Guide cases for viability, T/C, answers given:
>  <MOLECULE>
O=C(c1cc(Cc2n[nH]c(=O)c3ccccc23)ccc1F)N1CCN(C(=O)C2CC2)CC1 + Cc1cncc(-c2nc(NCCc3c[nH]c4ccccc34)c3ncn(C(C)C)c3n2)c1

>  <viability, T/C / %>
104

$$$$
>  <MOLECULE>
COc1ccc([C@@H](O)c2cc(-c3ncnc4cc(N5CCOCC5)ccc34)c(F)cc2Cl)nn1 + Cc1ccccc1N=Nc1ccc(NC(=O)c2ccnn2C)c(C)c1

>  <viability, T/C / %>
84.4

$$$$

input: Which viability, T/C is reported for this molecule? CC1COCCN1c1cc(C2(S(C)(=N)=O)CC2)nc(-c2ccnc3[nH]ccc23)n1 (configuration not stated) + Cc1ccccc1N=Nc1ccc(NC(=O)c2ccnn2C)c(C)c1
output: 36.2

input: Which viability, T/C is reported for this molecule? COc1cc(C2c3cc4c(cc3C(OC3OC5COC(C)OC5C(O)C3O)C3COC(=O)C23)OCO4)cc(OC)c1O (configuration not stated) + CC(CO)NC(=O)c1cc(-c2ccc(Cl)cc2)nn(-c2cnn(C)c2)c1=O
output: 24.5

input: Which viability, T/C is reported for this molecule? CC1(C)CCC(CN2CCN(c3ccc(C(=O)NS(=O)(=O)c4ccc(NCC5CCOCC5)c([N+](=O)[O-])c4)c(Oc4cnc5[nH]ccc5c4)c3)CC2)=C(c2ccc(Cl)cc2)C1 + Cc1ccccc1N=Nc1ccc(NC(=O)c2ccnn2C)c(C)c1
output: 98.8

input: Which viability, T/C is reported for this molecule? COc1cc(Nc2ncc3c(n2)-c2ccc(Cl)cc2C(c2c(F)cccc2OC)=NC3)ccc1C(=O)O + Cc1ccccc1N=Nc1ccc(NC(=O)c2ccnn2C)c(C)c1
output: 62.1

input: Which viability, T/C is reported for this molecule? NS(=O)(=O)OCC1CC(n2ccc3c(NC4CCc5ccccc54)ncnc32)CC1O (configuration not stated) + Cc1ccccc1N=Nc1ccc(NC(=O)c2ccnn2C)c(C)c1
output: 29.6

input: Which viability, T/C is reported for this molecule? Nc1ccccc1NC(=O)c1ccc(CNC(=O)OCc2cccnc2)cc1 + CC(CO)NC(=O)c1cc(-c2ccc(Cl)cc2)nn(-c2cnn(C)c2)c1=O
output: 54.6
